Catalogue of compounds with associated pIC50
# Test System: Human Met (Homo sapiens, UniProt P08581)
# Construct: Human MET (residues 956-1390)
# Sequence (P08581 974-1390 limits assumed): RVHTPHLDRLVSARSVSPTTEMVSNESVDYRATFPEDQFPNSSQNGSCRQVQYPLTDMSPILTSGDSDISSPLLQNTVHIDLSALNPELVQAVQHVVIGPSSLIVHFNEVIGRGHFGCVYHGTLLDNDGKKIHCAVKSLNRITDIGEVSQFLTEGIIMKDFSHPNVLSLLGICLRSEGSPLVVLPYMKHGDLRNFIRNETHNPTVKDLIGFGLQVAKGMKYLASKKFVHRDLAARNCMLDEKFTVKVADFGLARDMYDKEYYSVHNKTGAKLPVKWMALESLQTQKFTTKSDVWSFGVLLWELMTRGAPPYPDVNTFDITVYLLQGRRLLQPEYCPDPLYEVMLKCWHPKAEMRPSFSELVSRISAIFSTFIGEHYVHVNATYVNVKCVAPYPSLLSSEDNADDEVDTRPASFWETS
# Protocol Details: Human Met kinase assay (33P radiometric / HTRF KinEase)
# Applied Conditions: protocols of Examples D-1 and/or D-2; read-out: c-Met IC50
pIC50: −log10 of the molar value. Structures can show the parent of a compound that is named as a salt.
Quantity: pIC50

>>> obs_value("COCCOc1cc2nccc(Oc3ccc(NC(=O)c4cnc(C)c(C5=CCOCC5)c4O)cc3F)c2nc1OC")
"≥ 7.00"
>>> obs_value("COCCOc1cc2nccc(Oc3ccc(NC(=O)c4c(C)n(C)c(C)c(/C=C/C5CCCC5)c4=O)cc3F)c2nc1OC")
"6.52 to 7.00"
>>> obs_value("COc1cc2nccc(Oc3ccc(NC(=O)c4cnc(C)c(C5=CCCC5)c4O)cc3)c2cc1OC")
"≥ 7.00"
>>> obs_value("COc1cc2nccc(Oc3ccc(NC(=O)c4c(C)n(C)c(C)c(/C=C/C5CC5)c4=O)cc3F)c2nc1OC")
"< 6.52"
>>> obs_value("COc1cc2nccc(Oc3ccc(NC(=O)c4c(C)n(C)c(C)c(C(=O)NC5CC5)c4=O)cc3F)c2nc1OC")
"< 6.52"
>>> obs_value("COc1cc2nccc(Oc3ccc(NC(=O)c4c(C)nc(C)c(C5=CCCC5)c4O)cc3F)c2nc1OC [Compound 1-2, hydrochloride]")
"≥ 7.00"
>>> obs_value("COc1cc2nccc(Oc3ccc(NC(=O)c4c(C)nc(C)c(C(C)C)c4O)cc3)c2nc1OC")
"≥ 7.00"

----------
# Test System: Human Met (Homo sapiens, UniProt P08581)
# Construct: Human MET (residues 956-1390)
# Protocol Details: Human Met kinase assay (33P radiometric / HTRF KinEase)
# Applied Conditions: protocols of Examples D-1 and/or D-2; read-out: c-Met IC50
pIC50: −log10 of the molar value.
Catalogue of compounds with associated pIC50
Quantity: pIC50

>>> obs_value("COc1cnc2c(Oc3ccc(NC(=O)c4c(C)nc(C)c(C(N)=O)c4O)cc3F)ccnc2c1")
"< 6.52"
>>> obs_value("COc1cc2nccc(Oc3ccc(NC(=O)c4c5n(cc(C6=CCCCC6)c4=O)CCOC5)cc3)c2nc1OC")
"≥ 7.00"
>>> obs_value("COc1cc2nccc(Oc3ccc(NC(=O)c4cn(CCF)c(C)c(C5CCCC5)c4=O)cc3F)c2nc1OC")
"≥ 7.00"
>>> obs_value("COc1cnc2c(Oc3ccc(NC(=O)c4c(C)nc(C)c(OC)c4O)cc3F)ccnc2c1")
"< 6.52"

----------
# Test System: Human Axl (Homo sapiens, UniProt P30530)
# Sequence (P30530 whole entry Q764R, form open): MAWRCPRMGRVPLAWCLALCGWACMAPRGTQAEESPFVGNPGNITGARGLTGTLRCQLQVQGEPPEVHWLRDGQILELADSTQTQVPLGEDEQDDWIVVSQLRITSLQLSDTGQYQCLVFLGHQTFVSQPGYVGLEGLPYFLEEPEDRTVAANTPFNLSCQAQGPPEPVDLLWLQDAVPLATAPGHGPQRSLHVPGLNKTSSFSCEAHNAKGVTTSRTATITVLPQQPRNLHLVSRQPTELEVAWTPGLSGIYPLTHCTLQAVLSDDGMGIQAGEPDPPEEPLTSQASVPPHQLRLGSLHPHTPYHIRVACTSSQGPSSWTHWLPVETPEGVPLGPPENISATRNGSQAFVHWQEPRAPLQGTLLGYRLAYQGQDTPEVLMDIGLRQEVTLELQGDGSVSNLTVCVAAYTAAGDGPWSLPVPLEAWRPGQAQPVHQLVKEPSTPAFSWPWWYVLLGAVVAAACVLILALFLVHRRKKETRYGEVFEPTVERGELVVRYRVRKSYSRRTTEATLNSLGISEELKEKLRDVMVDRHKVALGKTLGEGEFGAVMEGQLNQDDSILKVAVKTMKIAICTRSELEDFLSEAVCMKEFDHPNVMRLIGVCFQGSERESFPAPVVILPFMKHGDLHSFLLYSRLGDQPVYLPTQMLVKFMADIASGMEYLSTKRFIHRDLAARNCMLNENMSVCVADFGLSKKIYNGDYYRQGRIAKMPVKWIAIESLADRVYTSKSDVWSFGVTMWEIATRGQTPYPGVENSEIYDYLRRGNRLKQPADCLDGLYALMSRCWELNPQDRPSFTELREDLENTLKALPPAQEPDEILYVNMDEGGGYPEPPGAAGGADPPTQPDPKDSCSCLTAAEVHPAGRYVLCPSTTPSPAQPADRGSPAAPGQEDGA
Structures can show the parent of a compound that is named as a salt.
Catalogue of compounds with associated IC50
Quantity: IC50

>>> obs_value("COc1cc2nccc(Oc3ccc(NC(=O)c4cnc(C)c(C5=CCCC5)c4O)cc3F)c2nc1OC [Compound G1-2, hydrochloride]")
"≤ 100 nM"
>>> obs_value("COCCOc1cc2nccc(Oc3ccc(NC(=O)c4c(C)n(C)c(C)c(/C=C/C5CC5)c4=O)cc3F)c2nc1OC [Compound 51]")
"≤ 100 nM"
>>> obs_value("COc1cc2nccc(Oc3ccc(NC(=O)c4c(C)cc(C)n(C5=CCCC5)c4=O)cc3F)c2nc1OC [Compound 14]")
"≤ 100 nM"
>>> obs_value("COc1cc2nccc(Oc3ccc(NC(=O)c4cnc(C)c(C5=CCOCC5)c4O)cc3F)c2nc1OC [Compound 1-3]")
"≤ 100 nM"
>>> obs_value("COc1cc2nccc(Oc3ccc(NC(=O)c4cnc(C)c(C5=CCCC5)c4O)cc3F)c2cc1OC [Compound 18]")
"≤ 100 nM"
>>> obs_value("COc1cc2nccc(Oc3ccc(NC(=O)c4cnc(C)c(C5=CCCCC5)c4O)cc3)c2cc1OC [Compound 24]")
"≤ 100 nM"
>>> obs_value("COc1cc2nccc(Oc3ccc(NC(=O)c4c(C)nc(C)c(C(N)=O)c4O)cc3F)c2nc1OC [Compound 84]")
"> 300 nM"
>>> obs_value("COc1cc2nccc(Oc3ccc(NC(=O)c4cnc(C)c(C5=CCCC5)c4O)cc3)c2cc1OC [Compound 16]")
"≤ 100 nM"
>>> obs_value("COCCOc1cnc2c(Oc3ccc(NC(=O)c4c(C)nc(C)c(C5=CCCC5)c4O)cc3F)ccnc2c1 [Compound 101]")
"≤ 100 nM"
>>> obs_value("COCCOc1cc2nccc(Oc3ccc(NC(=O)c4c(C)nc(C)c(C5=CCOCC5)c4O)cc3F)c2nc1OC [Compound 43]")
"≤ 100 nM"
>>> obs_value("COCCOc1cnc2c(Oc3ccc(NC(=O)c4c(C)n(C)c(C)c(C5=CCCC5)c4=O)cc3F)ccnc2c1 [Compound 65]")
"≤ 100 nM"
>>> obs_value("C=C(C)n1c(C)cc(C)c(C(=O)Nc2ccc(Oc3ccnc4cc(OC)cnc34)c(F)c2)c1=O [Compound 21]")
"> 300 nM"
>>> obs_value("COc1ccc2nccc(Oc3ccc(NC(=O)c4cnc(C)c(C5=CCOCC5)c4O)cc3F)c2n1 [Compound 1-5]")
"≤ 100 nM"
>>> obs_value("COc1cc2nccc(Oc3ccc(NC(=O)c4c(C)nc(C)c(C(=O)NC5CC5)c4O)cc3F)c2nc1OC [Compound 98]")
"≤ 100 nM"
>>> obs_value("COc1cc2nccc(Oc3ccc(NC(=O)c4c(C)n(C)c(C)c(C(=O)O)c4=O)cc3F)c2nc1OC [Compound 92]")
"> 300 nM"
>>> obs_value("COc1cc2nccc(Oc3ccc(NC(=O)c4c(C)nc(C)c(C5=CCCC5)c4O)cc3F)c2nc1OC [Compound 1-2, hydrochloride]")
"≤ 100 nM"
>>> obs_value("COc1cc2nccc(Oc3ccc(NC(=O)c4c(C)ccn(C(C)C)c4=O)cc3)c2nc1OC [Compound 39]")
"> 300 nM"
